MEASURED_ON: DD(E) fragment of fibrin
EXPERIMENT_SUMMARY: affinity to DD(E) fragment of fibrin
Starred links: 1 amine or outer side, 2 acyl side, 3 side chain; linkers in the order of their positions; H or OH if unused. Positions of bridges follow the written chain, without caps; N, C: chain ends. Non-standard residues stand in square brackets, D forms with d. Primed or numbered codes have the meaning given here. No end group written: not given here. Tyr(3-NO2) = N[C@@H](Cc1ccc(O)c([N+](=O)[O-])c1)C(=O)O; Phe(4-OMe) = COc1ccc(C[C@H](N[*:1])C(=O)[*:2])cc1; Tyr(3-Cl) = N[C@@H](Cc1ccc(O)c(Cl)c1)C(=O)O; Tyr(3-I) = N[C@@H](Cc1ccc(O)c(I)c1)C(=O)O; Phe(4-NH2) = Nc1ccc(C[C@H](N)C(=O)O)cc1; 1Nal = N[C@@H](Cc1cccc2ccccc12)C(=O)O; Hyp = O=C(O)[C@@H]1C[C@@H](O)CN1; hPhe = N[C@@H](CCc1ccccc1)C(=O)O; 3Pal = N[C@@H](Cc1cccnc1)C(=O)O; Tyr(2-F)′ = not defined here
We begin with a simple list: items and their reported Kd.

// solved cases for Kd follow
[hPhe]HC[Hyp]YDLCHIL (disulfide 3-8 (inferred)) [Hfe-H-C-Hyp-Y-D-L-C-H-I-L] = < 500 nM
LPCDYYGTCXD (Bip at 10) [L-P-C-D-Y-Y-G-T-C-Bip-D] = < 10000 nM
[Phe(4-OMe)][His(Bzl)]C[Hyp][Tyr(3-Cl)]DLCHI (disulfide 3-8 (inferred)) [F(4-OMe)-H(Bzl)-C-Hyp-Y(3-Cl)-D-L-C-H-I] = < 100 nM

# Kd of [Tyr(2-F)′]HC[Hyp][Tyr(3-I)]DLCHI (disulfide 3-8 (inferred)) [Y(2-F)-H-C-Hyp-Y(3-I)-D-L-C-H-I] = < 100 nM

The reported Kd of the binder [Tyr(3-NO2)]HC[Hyp][Tyr(3-I)]DLCHI (disulfide 3-8 (inferred)) [Y(3-NO2)-H-C-Hyp-Y(3-I)-D-L-C-H-I] was < 100 nM

[3Pal]HC[Hyp][Tyr(3-I)]DLCHI (disulfide 3-8 (inferred)) [3Pal-H-C-Hyp-Y(3-I)-D-L-C-H-I] yielded Kd of < 100 nM

The binder [Phe(4-NH2)]HC[Hyp][Tyr(3-I)]DLCHI (disulfide 3-8 (inferred)) [F(4-NH2)-H-C-Hyp-Y(3-I)-D-L-C-H-I] showed Kd equal to < 100 nM

Sure, the documented Kd for [1Nal]HC[Hyp][Tyr(3-I)]DLCHI (disulfide 3-8 (inferred)) [1Nal-H-C-Hyp-Y(3-I)-D-L-C-H-I] is < 100 nM
